Test system: Mus musculus
experiment.description: In vivo antitumor activity was measured in mice (P388 leukemia) at dose 5 mg/kg after intraperitoneal administration
Assay type: functional
observed.property: T/C (%)
Numbers only, in %.

Worked examples follow.
>  <compound.structure>
Cc1ccccc1C(c1ccc(C(C)C)cc(=O)c1O)c1ccc(C(C)C)cc(=O)c1O

>  <assayed.target>
Mus musculus

>  <result.units>
%

>  <reported>
156

$$$$
>  <compound.structure>
COc1ccc(C(c2cc(C(C)C)ccc(=O)c2O)c2cc(C(C)C)ccc(=O)c2O)cc1

>  <assayed.target>
Mus musculus

>  <result.units>
%

>  <reported>
156

$$$$
>  <compound.structure>
CC(C)c1ccc(C(c2ccc(N(C)C)cc2)c2ccc(C(C)C)cc(=O)c2O)c(O)c(=O)c1

>  <assayed.target>
Mus musculus

>  <result.units>
%

>  <reported>
173

$$$$
>  <compound.structure>
Cc1ccc(C(c2ccc(C(C)C)cc(=O)c2O)c2ccc(C(C)C)cc(=O)c2O)cc1

>  <assayed.target>
Mus musculus

>  <result.units>
%

>  <reported>
147

$$$$

I have 2 compounds here; please give me T/C for each one.
1. COc1ccccc1C(c1ccc(C(C)C)cc(=O)c1O)c1ccc(C(C)C)cc(=O)c1O
2. COc1cccc(C(c2ccc(C(C)C)cc(=O)c2O)c2ccc(C(C)C)cc(=O)c2O)c1

1: 151; 2: 134

I have 2 compounds here; please give me T/C for each one.
1. CC(C)c1ccc(C(c2ccc(Cl)cc2)c2ccc(C(C)C)cc(=O)c2O)c(O)c(=O)c1
2. COc1ccc(C(c2ccc(C(C)C)cc(=O)c2O)c2ccc(C(C)C)cc(=O)c2O)cc1OC

1: 141; 2: 156
